Data provenance is PubChem BioAssay.

# Experiment notes: viability gain of MRP-1-high H69AR cells under doxorubicin, pilot screen, MRP-1 activator project, CellTiter-Glo, duplicate (AID 807);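 also: compound pretreatment 18-22 h then 72 h combined with doxorubicin; 0% = doxorubicin alone and 100% = vehicle without doxorubicin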
# Condition context: H69AR viability with doxorubicin, CellTiter-Glo luminescence; at 10 µM; hits give high values
Kindly state viability increase for each of the entries shown.
Give the quantity in %, number only.

What viability increase value was documented for this compound, `COc1ccc(-c2cn3c(C)c(C(=O)NC(C)(C)C)sc3n2)cc1` ?
-5.94

What viability increase value was documented for this compound, `O=C(NCCn1ccc2ccccc21)C1CCCCC1` ?
-0.84

What viability increase value was documented for this compound, `COc1ccccc1N1CCN(C(=O)COc2ccc(C)cc2Br)CC1` ?
-1.4

What viability increase value was documented for this compound, CC12CCC(C(=O)NCc3ccco3)(OC1=O)C2(C)C (centres undefined) ?
-2.96

What viability increase value was documented for this compound, `O=C(CCN1C(=O)c2ccccc2C1=O)OCn1nnc2ccccc2c1=O` ?
-0.15

What viability increase value was documented for this compound, `Cc1nc2scc(-c3cccs3)c2c(=O)o1` ?
-1.96

What viability increase value was documented for this compound, COCCn1c(SCC(=O)NCC2CCCO2)nc2c(c1=O)SC(C)C2 (centres undefined) ?
-0.65

What viability increase value was documented for this compound, `COc1ccc(NC(=O)Nc2c(C)n(C)n(-c3ccccc3)c2=O)cc1` ?
-2.06

What viability increase value was documented for this compound, COc1cccc(C2CC(c3ccccc3)Nc3nc(N)nn32)c1 (centres undefined) ?
0.44

What viability increase value was documented for this compound, `COC(=O)c1ccccc1NC(=O)CSc1nc(N)cc(N)n1` ?
-2.46

What viability increase value was documented for this compound, Cc1nc2ccccn2c1/C(O)=C1\C(=O)C(=O)N(CCCN(C)C)C1c1ccc(Cl)cc1 (centres undefined) ?
-1.34

What viability increase value was documented for this compound, `COc1cccc(CNC(=O)Cn2cc3c(n2)CCCC3)c1` ?
0.16

What viability increase value was documented for this compound, `C#CC(C)(C)NC(=O)CSc1nc2c(c(=O)n(C)c(=O)n2C)n1CCCC` ?
1.86

What viability increase value was documented for this compound, `O=C(NCc1cn2ccccc2n1)c1ccc(Br)o1` ?
-1.31
